// reported IC50 per item
Test system: IL-2 secretion by Jurkat T cells
Assay: Inhibition of IL-2 secretion
Assay type: cell-based
Conditions: Homo sapiens; Jurkat T cells stimulated with PHA, 20 to 24 hours, IL-2 by ELISA

Here's what some known entries look like.
[
  {
    "MOLECULE": "Cn1c(=O)oc2c(C3CC3)c(-c3ccc(NC(=O)c4c(F)cccc4F)nc3)ccc21",
    "IC50": "25 to 50 nM"
  },
  {
    "MOLECULE": "Cc1cc2oc(=O)n(C)c2cc1-c1cnc(NC(=O)c2c(F)cccc2F)cn1",
    "IC50": "50 to 100 nM"
  },
  {
    "MOLECULE": "Cc1cc2c(cc1-c1ccc(NC(=O)c3c(F)cccc3F)cc1)OCC(=O)N2C",
    "IC50": "< 25 nM"
  }
]

Okay, now this molecule:
GET /values?readout=IC50&system=IL-2 secretion by Jurkat T cells&item= "Cc1cc2oc(=O)n(C)c2cc1-c1ccc(C(=O)Nc2c(Cl)cncc2Cl)s1"
25 to 50 nM

* * *

// reported IC50 per item
Tested on: IL-2 secretion by Jurkat T cells
Experiment: Inhibition of IL-2 secretion
Format: cell-based
Settings: Homo sapiens; Jurkat T cells stimulated with PHA, 20 to 24 hours, IL-2 by ELISA

Here's what some known entries look like.
[
  {
    "MOLECULE": "Cc1cc2oc(=O)n(C)c2cc1-c1ccc(C(=O)Nc2c(F)cncc2F)s1",
    "IC50": "< 25 nM"
  },
  {
    "MOLECULE": "Cn1c(=O)oc2c(C3CC3)c(-c3ccc(NC(=O)c4c(F)cccc4F)cc3)cnc21",
    "IC50": "25 to 50 nM"
  },
  {
    "MOLECULE": "CCn1c(=O)oc2cc(C)c(-c3ccc(NC(=O)c4c(F)cccc4F)cc3)cc21",
    "IC50": "50 to 100 nM"
  },
  {
    "MOLECULE": "CCc1cc2c(cc1-c1ccc(C(=O)Nc3c(F)cncc3F)cc1)N(C)C(=O)CO2",
    "IC50": "100 to 500 nM"
  },
  {
    "MOLECULE": "Cn1c(=O)oc2cc(-c3cnc(NC(=O)c4c(F)cccc4F)cn3)c(C3CC3)cc21",
    "IC50": "50 to 100 nM"
  },
  {
    "MOLECULE": "CCc1cc2c(cc1-c1ccc(NC(=O)c3c(F)cccc3F)nc1)oc(=O)n2C",
    "IC50": "25 to 50 nM"
  },
  {
    "MOLECULE": "CCc1cc2oc(=O)n(C)c2cc1-c1ccc(NC(=O)c2c(F)cccc2F)cn1",
    "IC50": "50 to 100 nM"
  },
  {
    "MOLECULE": "Cn1c(=O)oc2c(C3CC3)c(-c3ccc(NC(=O)c4ccccc4Cl)cc3)ccc21",
    "IC50": "50 to 100 nM"
  }
]

// lookup IC50 for "Cn1c(=O)oc2cc(-c3ccc(NC(=O)c4c(F)cccc4F)cc3)c(C3CC3)nc21"
< 25 nM

// repeat for "Cc1cc2oc(=O)n(CC3CC3)c2cc1-c1ccc(NC(=O)c2c(F)cccc2F)cc1" and report
25 to 50 nM

// repeat for "CCc1cc2oc(=O)n(C)c2cc1-c1cnc(NC(=O)c2c(F)cccc2F)cn1" and report
50 to 100 nM

// repeat for "CN1C(=O)COc2cc(-c3ccc(NC(=O)c4c(F)cccc4F)cc3)c(C3CC3)cc21" and report
< 25 nM

// repeat for "CCc1cc2c(cc1-c1cnc(NC(=O)c3c(F)cccc3F)cn1)N(C)C(=O)CO2" and report
100 to 500 nM

* * *

System: IL-2 secretion by Jurkat T cells
Assay: Inhibition of IL-2 secretion
Assay type: cell-based
Conditions: Homo sapiens; Jurkat T cells stimulated with PHA, 20 to 24 hours, IL-2 by ELISA
// reported IC50 per item

Here's what some known entries look like.
[
  {
    "MOLECULE": "CN1C(=O)COc2cc(-c3ccc(NCc4c(F)cccc4F)cc3)c(C3CC3)cc21",
    "IC50": "< 25 nM"
  },
  {
    "MOLECULE": "CN1C(=O)COc2cc(-c3ccc(NC(=O)c4c(F)cccc4F)nc3)c(C3CC3)cc21",
    "IC50": "< 25 nM"
  }
]

// lookup IC50 for "Cn1c(=O)oc2c(C3CC3)c(-c3cnc(NC(=O)c4c(F)cccc4F)cn3)ccc21"
100 to 500 nM

// repeat for "CCc1c(-c2cnc(NC(=O)c3c(F)cccc3F)cn2)cnc2c1oc(=O)n2C" and report
100 to 500 nM

// repeat for "CCCn1c(=O)oc2cc(C)c(-c3ccc(NC(=O)c4c(F)cccc4F)cc3)cc21" and report
< 25 nM

// repeat for "Cc1cc2c(cc1-c1ccc(NC(=O)c3c(F)cccc3F)cc1)oc(=O)n2C" and report
< 25 nM

* * *

Test system: IL-2 secretion by Jurkat T cells
Assay: Inhibition of IL-2 secretion
Format: cell-based
Settings: Homo sapiens; Jurkat T cells stimulated with PHA, 20 to 24 hours, IL-2 by ELISA
Protocol: The CRAC channel modulatory activity of the compounds were thus evaluated by measuring the secretion of IL-2 by antigen stimulated T-cells in vitro. Alternatively, such activity can also be evaluated by assay methods known to one skilled in the art. Inhibition of IL-2 secretion: Jurkat T cells were seeded at a density of 0.5 to 1 million cells per well in RPMI medium. […] The dose response data was analyzed using 4-parametric sigmoidal dose response (variable slope) curve-fit.
OBSERVABLE: IC50

// lookup IC50 for Cn1c(=O)oc2c(C3CC3)c(-c3ccc(NCc4c(F)cccc4F)cc3)ccc21 [Example 100]
25 to 50 nM

// repeat for Cn1c(=O)oc2cc(C3CC3)c(-c3cnc(NC(=O)c4c(F)cccc4F)cn3)cc21 [Example 84] and report
25 to 50 nM

// repeat for CN1C(=O)COc2cc(-c3cnc(NC(=O)c4c(F)cccc4Cl)cn3)c(C3CC3)cc21 [Example 117] and report
25 to 50 nM

// repeat for Cn1c(=O)oc2cc(-c3ccc(NC(=O)c4c(F)cccc4F)cc3)c(C3CC3)cc21 [Example 42] and report
< 25 nM

// repeat for Cc1cc2oc(=O)n(C(F)F)c2cc1-c1ccc(NC(=O)c2c(F)cccc2F)cc1 [Example 32] and report
< 25 nM

// repeat for Cc1cc2c(cc1-c1cnc(NC(=O)c3c(F)cccc3F)cn1)OCC(=O)N2C [Example 126] and report
100 to 500 nM

// repeat for Cc1cc2oc(=O)n(C(F)F)c2cc1-c1ccc(NC(=O)c2c(F)cccc2F)cn1 [Example 76] and report
25 to 50 nM

// repeat for CCc1cc2oc(=O)n(C)c2cc1-c1ccc(NC(=O)c2c(F)cccc2F)cc1 [Example 85] and report
< 25 nM

* * *

System: IL-2 secretion by Jurkat T cells
Test: Inhibition of IL-2 secretion
Type: cell-based
Settings: Homo sapiens; Jurkat T cells stimulated with PHA, 20 to 24 hours, IL-2 by ELISA
OBSERVABLE: IC50

[
  {
    "MOLECULE": "Cc1cc2oc(=O)n(C(F)F)c2cc1-c1cnc(NC(=O)c2c(F)cccc2F)cn1",
    "IC50": "< 25 nM"
  },
  {
    "MOLECULE": "Cn1c(=O)oc2cc(-c3cnc(NC(=O)c4c(F)cccc4F)cn3)c(C3CC3)nc21",
    "IC50": "25 to 50 nM"
  },
  {
    "MOLECULE": "Cc1cc2oc(=O)n(C)c2cc1-c1ccc(C(=O)Nc2c(F)cccc2F)s1",
    "IC50": "< 25 nM"
  },
  {
    "MOLECULE": "Cn1c(=O)oc2cc(C3CC3)c(-c3ccc(NC(=O)c4c(F)cccc4F)cc3)cc21",
    "IC50": "< 25 nM"
  },
  {
    "MOLECULE": "Cc1c(-c2ccc(NC(=O)c3c(F)cccc3F)cc2)ccc2c1oc(=O)n2C",
    "IC50": "50 to 100 nM"
  }
]

GET /values?readout=IC50&system=IL-2 secretion by Jurkat T cells&item= "CCc1cc2c(cc1-c1ccc(C(=O)Nc3c(F)cccc3F)s1)oc(=O)n2C"
25 to 50 nM

// repeat for "Cc1cc2c(cc1-c1ccc(NCc3c(F)cccc3F)cc1)OCC(=O)N2C" and report
50 to 100 nM

// repeat for "Cc1nc2c(cc1-c1ccc(NC(=O)c3c(F)cccc3F)cc1)oc(=O)n2C" and report
< 25 nM

* * *

// reported IC50 per item
Tested on: IL-2 secretion by Jurkat T cells
Test: Inhibition of IL-2 secretion
Type: cell-based
Conditions: Homo sapiens; Jurkat T cells stimulated with PHA, 20 to 24 hours, IL-2 by ELISA

// lookup IC50 for CN1C(=O)COc2cc(-c3cnc(NC(=O)c4c(F)cccc4F)cn3)c(C3CC3)cc21 [Example 116]
< 25 nM

All values here come from patent US9725463B2.
